For each record, write down the corresponding solubility (mole fraction).
details: in n-butanol, 293.15 K
API doc: respond with a numeric literal and nothing else, no unit.

-- ask Suppose we examine the compound C[C@H](CCC(=O)O)[C@H]1CC[C@H]2[C@@H]3CC[C@@H]4C[C@H](O)CC[C@]4(C)[C@H]3C[C@H](O)[C@]12C ; what solubility (mole fraction) value has been reported?
-- reply 0.00159

-- ask Quick one: C[C@H](CCC(=O)O)[C@H]1CC[C@H]2[C@@H]3[C@H](O)C[C@@H]4C[C@H](O)CC[C@]4(C)[C@H]3C[C@H](O)[C@]12C
-- reply 0.00245

* * *

settings: in gamma-valerolactone, 323.15 K
assay-endpoint: solubility (mole fraction)
API doc: respond with a numeric literal and nothing else, no unit.

-- ask Suppose we examine the molecule C[C@H](CCC(=O)O)[C@H]1CC[C@H]2[C@@H]3[C@H](O)C[C@@H]4C[C@H](O)CC[C@]4(C)[C@H]3C[C@H](O)[C@]12C ; what solubility (mole fraction) value has been reported?
-- reply 0.00604

-- ask Quick one: C[C@H](CCC(=O)O)[C@H]1CC[C@H]2[C@@H]3CC[C@@H]4C[C@H](O)CC[C@]4(C)[C@H]3C[C@H](O)[C@]12C
-- reply 0.00509

* * *

settings: in methyl acetate, 303.15 K
assay-endpoint: solubility (mole fraction)
API doc: respond with a numeric literal and nothing else, no unit.

-- ask Suppose we examine the compound C[C@H](CCC(=O)O)[C@H]1CC[C@H]2[C@@H]3[C@H](O)C[C@@H]4C[C@H](O)CC[C@]4(C)[C@H]3C[C@H](O)[C@]12C ; what solubility (mole fraction) value has been reported?
-- reply 0.000232

-- ask Quick one: C[C@H](CCC(=O)O)[C@H]1CC[C@H]2[C@@H]3CC[C@@H]4C[C@H](O)CC[C@]4(C)[C@H]3C[C@H](O)[C@]12C
-- reply 0.00071

* * *

settings: in gamma-valerolactone, 333.15 K
For each record, write down the corresponding solubility (mole fraction).
API doc: respond with a numeric literal and nothing else, no unit.

-- ask Suppose we examine the molecule C[C@H](CCC(=O)O)[C@H]1CC[C@H]2[C@@H]3[C@H](O)C[C@@H]4C[C@H](O)CC[C@]4(C)[C@H]3C[C@H](O)[C@]12C ; what solubility (mole fraction) value has been reported?
-- reply 0.00978

-- ask Quick one: C[C@H](CCC(=O)O)[C@H]1CC[C@H]2[C@@H]3CC[C@@H]4C[C@H](O)CC[C@]4(C)[C@H]3C[C@H](O)[C@]12C
-- reply 0.00757

* * *

details: in cyclohexanone, 313.15 K
assay-endpoint: solubility (mole fraction)
API doc: respond with a numeric literal and nothing else, no unit.

-- ask Suppose we examine the compound C[C@H](CCC(=O)O)[C@H]1CC[C@H]2[C@@H]3CC[C@@H]4C[C@H](O)CC[C@]4(C)[C@H]3C[C@H](O)[C@]12C ; what solubility (mole fraction) value has been reported?
-- reply 0.00416

-- ask Quick one: C[C@H](CCC(=O)O)[C@H]1CC[C@H]2[C@@H]3[C@H](O)C[C@@H]4C[C@H](O)CC[C@]4(C)[C@H]3C[C@H](O)[C@]12C
-- reply 0.0106

* * *

For each record, write down the corresponding solubility (mole fraction).
settings: in methyl acetate, 313.15 K

-- ask Suppose we examine the compound C[C@H](CCC(=O)O)[C@H]1CC[C@H]2[C@@H]3[C@H](O)C[C@@H]4C[C@H](O)CC[C@]4(C)[C@H]3C[C@H](O)[C@]12C ; what solubility (mole fraction) value has been reported?
-- reply 0.000489

-- ask Quick one: C[C@H](CCC(=O)O)[C@H]1CC[C@H]2[C@@H]3CC[C@@H]4C[C@H](O)CC[C@]4(C)[C@H]3C[C@H](O)[C@]12C
-- reply 0.00107

* * *

For each record, write down the corresponding solubility (mole fraction).
settings: in methyl acetate, 323.15 K

-- ask Suppose we examine the compound C[C@H](CCC(=O)O)[C@H]1CC[C@H]2[C@@H]3[C@H](O)C[C@@H]4C[C@H](O)CC[C@]4(C)[C@H]3C[C@H](O)[C@]12C ; what solubility (mole fraction) value has been reported?
-- reply 0.000811

-- ask Quick one: C[C@H](CCC(=O)O)[C@H]1CC[C@H]2[C@@H]3CC[C@@H]4C[C@H](O)CC[C@]4(C)[C@H]3C[C@H](O)[C@]12C
-- reply 0.0016
